- target_entity: Histone deacetylase 3/Nuclear receptor corepressor 2 (HDAC3/NCoR2) (Homo sapiens, UniProt O15379)
- Sequence (O15379 whole entry): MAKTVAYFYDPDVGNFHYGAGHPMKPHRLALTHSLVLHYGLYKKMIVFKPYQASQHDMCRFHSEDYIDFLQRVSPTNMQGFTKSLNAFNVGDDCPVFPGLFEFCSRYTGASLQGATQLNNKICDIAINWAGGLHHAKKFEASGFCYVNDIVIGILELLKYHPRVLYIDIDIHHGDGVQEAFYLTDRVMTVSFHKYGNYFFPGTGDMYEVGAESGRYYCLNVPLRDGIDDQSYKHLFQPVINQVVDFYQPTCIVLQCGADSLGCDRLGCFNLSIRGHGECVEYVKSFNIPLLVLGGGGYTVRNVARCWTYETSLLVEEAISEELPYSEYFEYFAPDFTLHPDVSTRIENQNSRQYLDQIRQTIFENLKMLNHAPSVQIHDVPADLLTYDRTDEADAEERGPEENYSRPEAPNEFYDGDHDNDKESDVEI
- Sequence (Q9Y618 whole entry, further chain): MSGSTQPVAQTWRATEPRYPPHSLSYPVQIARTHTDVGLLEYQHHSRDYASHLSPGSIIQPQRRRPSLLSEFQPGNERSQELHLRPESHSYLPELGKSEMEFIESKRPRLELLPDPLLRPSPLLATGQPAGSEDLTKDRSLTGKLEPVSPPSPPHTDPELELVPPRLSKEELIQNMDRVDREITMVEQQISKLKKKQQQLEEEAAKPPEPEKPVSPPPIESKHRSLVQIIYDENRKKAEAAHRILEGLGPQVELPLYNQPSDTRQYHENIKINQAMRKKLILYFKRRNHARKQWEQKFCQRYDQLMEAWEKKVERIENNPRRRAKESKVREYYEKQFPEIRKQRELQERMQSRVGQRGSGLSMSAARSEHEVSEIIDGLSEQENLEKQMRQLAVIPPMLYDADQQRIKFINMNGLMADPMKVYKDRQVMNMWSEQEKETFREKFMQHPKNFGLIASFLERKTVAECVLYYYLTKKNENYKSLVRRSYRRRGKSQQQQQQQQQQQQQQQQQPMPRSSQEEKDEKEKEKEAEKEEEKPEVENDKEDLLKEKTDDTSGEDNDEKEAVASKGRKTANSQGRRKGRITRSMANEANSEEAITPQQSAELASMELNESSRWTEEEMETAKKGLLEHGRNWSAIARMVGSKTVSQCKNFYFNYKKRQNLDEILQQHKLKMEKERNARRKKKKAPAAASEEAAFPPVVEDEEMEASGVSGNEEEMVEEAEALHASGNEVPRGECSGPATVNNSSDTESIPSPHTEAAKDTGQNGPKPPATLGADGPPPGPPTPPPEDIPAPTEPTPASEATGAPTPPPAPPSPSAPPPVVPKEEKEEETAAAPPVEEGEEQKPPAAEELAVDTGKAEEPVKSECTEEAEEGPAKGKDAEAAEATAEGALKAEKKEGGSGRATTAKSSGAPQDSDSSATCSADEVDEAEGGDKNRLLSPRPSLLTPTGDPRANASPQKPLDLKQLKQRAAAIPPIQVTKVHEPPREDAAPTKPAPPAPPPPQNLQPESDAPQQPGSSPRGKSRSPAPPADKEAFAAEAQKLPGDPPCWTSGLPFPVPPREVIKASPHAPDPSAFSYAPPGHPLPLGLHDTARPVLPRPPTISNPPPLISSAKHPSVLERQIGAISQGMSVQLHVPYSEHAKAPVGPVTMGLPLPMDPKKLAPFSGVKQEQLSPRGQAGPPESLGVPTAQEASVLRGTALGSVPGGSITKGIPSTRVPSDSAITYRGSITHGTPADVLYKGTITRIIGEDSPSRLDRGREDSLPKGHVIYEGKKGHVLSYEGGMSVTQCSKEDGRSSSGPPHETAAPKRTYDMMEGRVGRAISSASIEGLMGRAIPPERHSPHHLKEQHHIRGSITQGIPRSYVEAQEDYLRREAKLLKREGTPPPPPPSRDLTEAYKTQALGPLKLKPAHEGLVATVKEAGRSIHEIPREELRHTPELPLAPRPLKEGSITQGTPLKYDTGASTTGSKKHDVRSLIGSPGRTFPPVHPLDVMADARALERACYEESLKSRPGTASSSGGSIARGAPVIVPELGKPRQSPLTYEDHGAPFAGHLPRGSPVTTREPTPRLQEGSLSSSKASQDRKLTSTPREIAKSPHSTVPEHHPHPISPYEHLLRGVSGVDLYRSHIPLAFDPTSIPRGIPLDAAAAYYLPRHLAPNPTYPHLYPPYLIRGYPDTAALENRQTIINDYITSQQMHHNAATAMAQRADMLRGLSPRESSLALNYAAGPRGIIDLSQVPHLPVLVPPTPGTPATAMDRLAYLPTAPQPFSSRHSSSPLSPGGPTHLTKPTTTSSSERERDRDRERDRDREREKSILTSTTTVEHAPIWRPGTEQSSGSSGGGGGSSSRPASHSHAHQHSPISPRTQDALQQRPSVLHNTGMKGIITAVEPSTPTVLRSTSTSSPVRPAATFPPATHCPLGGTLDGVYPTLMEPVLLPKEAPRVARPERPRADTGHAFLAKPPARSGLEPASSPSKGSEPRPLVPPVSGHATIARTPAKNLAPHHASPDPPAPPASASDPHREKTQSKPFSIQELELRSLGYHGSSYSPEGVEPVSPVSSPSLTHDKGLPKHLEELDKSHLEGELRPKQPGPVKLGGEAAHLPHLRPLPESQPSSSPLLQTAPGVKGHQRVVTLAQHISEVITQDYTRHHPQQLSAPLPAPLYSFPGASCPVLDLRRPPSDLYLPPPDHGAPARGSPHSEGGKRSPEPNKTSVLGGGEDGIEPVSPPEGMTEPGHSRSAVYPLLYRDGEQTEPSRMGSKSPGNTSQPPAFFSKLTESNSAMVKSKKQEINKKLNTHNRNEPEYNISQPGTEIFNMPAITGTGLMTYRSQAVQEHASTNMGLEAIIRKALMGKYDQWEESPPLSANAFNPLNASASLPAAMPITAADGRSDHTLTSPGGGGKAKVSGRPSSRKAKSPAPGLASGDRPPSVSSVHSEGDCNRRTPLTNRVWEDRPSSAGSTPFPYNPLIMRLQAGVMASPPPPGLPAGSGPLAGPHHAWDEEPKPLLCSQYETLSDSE
- test_description: Inhibition of full length HDAC3/NCoR2 assessed as 7-amino-4-methylcoumarin release from fluorophore conjugated substrate after 5 mins by fluorescence assay
pIC50: −log10 of the molar value.
endpoint_label: pIC50

O=C1CC/C=C/CCC(=O)N(Cc2cccc(/C=N/NC(=O)c3cccc(C(=O)NO)c3)c2)C[C@H](c2ccccc2)O1 ... 4.82
O=C(NO)c1cccc(C(=O)N/N=C/c2ccccc2)c1 ... 4.74

[P] O=C1CC/C=C/CCC(=O)N(Cc2cccc(/C=N/NC(=O)c3cccc(C(=O)NO)c3)c2)C[C@@H](c2ccccc2)O1
[Q] C#CCOc1ccc(/C=N/NC(=O)c2cccc(C(=O)NO)c2)cc1
[R] C#CCOc1ccc(/C=N/NC(=O)CCCCCCC(=O)NO)cc1
**Q:** Number of compounds to sort: 3. Sort criterion: pIC50, ascending. Your task in answering is to list the labels in the requested order.
**A:** P, Q, R
